# tested.target: T1, cynomolgus SIRP-α D1 domain (cyno2) (cynomolgus monkey, UniProt Q5TFQ8 30-148 (human entry), limits assumed)
# T1 chain: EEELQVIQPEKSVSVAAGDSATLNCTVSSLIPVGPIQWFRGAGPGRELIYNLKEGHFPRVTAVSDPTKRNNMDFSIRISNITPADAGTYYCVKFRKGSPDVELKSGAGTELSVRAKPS
# procedure.details: SPR, Langmuir fit
experimental.endpoint: koff (s⁻¹)
Provide only the numeric value, understood in s⁻¹.

Worked examples follow.
S17 (scFv, V domains shown, also called clone 17) VH: DVQLVESGGAVVRPGESLRLSCAASGFTFSSYAMSWVRQAPGKGLEWLAGISAGGSDTYYIDSVKGRFTISRDNSENSLYLQMNSLTAEDTAVYYCARETWNHLFDYWGLGTLVTVSS VL: ALTQPASVSANPGETVKITCSGGDWYSTYYGWYQQKSPGSAPVTVIHSDDKRPSDIPSRFSGSASGSAATLTITGVRVEDEAVYYCAGYDGRTYINTFGAGTTLTVL
0.000207
S56 (scFv, V domains shown, also called clone 56) VH: DVQLVESGGGVVRPGESLRLSCAASGFTFSSYAMSWVRQAPGKGLEWLAGISAGGSDTYYIDSVKGRFTISRDNSKNSLYLQVNSLTAEDTAVYYCARETWNHLFDYWGLGTLVTVSS VL: ALTQPASVSANPGETVKITCSGGGYYSTYYGWYQQKSPGSAPVTVIHSDDKRPSDIPSRFSGSASGSAATLTITGVRVEDEAVYYCAGYDGRTYINTFGAGTTLTVL
0.00028

Now for another entry.
[ask] Any idea what koff was measured for S66 (scFv, V domains shown, also called clone 66; scFv-Fc form of AB66) VH: DVQLVESGGGVVRPGESLRLSCAASGFTFSSYAMSWVRQAPGKGLEWLAGISAGGSDTYYIDSVKGRFTISRDNPKNSLYLQMSSLTAEDTAVYYCARETWNHLFDYWGLGTLVTVSS VL: ALTQPASVSANPGETVKITCSGGDYYSTYYAWYQQKSPGSAPVTVIHSDDKRPSDIPSRFSGSASGSAATLIITGVRVEDEAVYYCGGYDGRTYINTFGAGTTLTVL ?
[reply] 0.000255

Each recorded value in this set is attributed to patent US20210363269A1.
